# assay info: Half life in human microsomes
# Type: ADME, Microsome
We begin with a simple list: items and their reported half-life.
Please state the value followed by its unit.

// known answers, use as guide
Incoming: Need half-life, item CCC(CC)Nc1nc(OC)c(-c2ccc(Cl)cc2Cl)nc1C
Outgoing: 56 min

Incoming: Need half-life, item CCc1nc(-c2ccc(C(F)(F)F)cc2OC)c(CC)nc1NC(CC)CC
Outgoing: 11 min

Next:
Incoming: Need half-life, item CCc1nc(-c2ccc(OC)nc2OC)c(CC)nc1NC(CC)CC
Outgoing: 9 min

----------
# assay info: Tmax in rat at 5 mg/kg, po
# Assay type: ADME, organism-based
# Parameters: dose 5 mg/kg, route oral
# experimental conditions: in vivo
value kind: Tmax (h)
Reply with just the number (in h).

Incoming: Need Tmax, item CCc1nc(-c2ccc(Cl)cc2Cl)c(CC)nc1NC(CC)CC
Outgoing: 1.3

----------
# assay info: Half life in rat microsomes
# Format: ADME, Microsome
value kind: log10 half-life (log10 of the value in min)
Give log10 of half-life, with half-life taken in min.

Incoming: Need log10 half-life, item CCc1nc(-c2ccc(Cl)cc2Cl)c(CC)nc1OC(CC)CC
Outgoing: 0.40

Incoming: Need log10 half-life, item CCOc1nc(-c2ccc(Cl)cc2Cl)c(CC)nc1NC(CC)CC
Outgoing: 1.87

Incoming: Need log10 half-life, item CCc1nc(-c2ccc(OC)cc2O)c(CC)nc1NC(CC)CC
Outgoing: 0.77

Incoming: Need log10 half-life, item CCc1nc(-c2ccc(OC)cc2OC)c(CC)nc1NC(CC)CC
Outgoing: 0.40

Incoming: Need log10 half-life, item CCC(CC)Nc1nc(C)c(-c2ccc(OC(F)F)cc2Cl)nc1OC
Outgoing: 1.68

Others:
Incoming: Need log10 half-life, item CCc1nc(NC(CC)CC)c(OC)nc1-c1ccc(OC(F)F)cc1Cl
Outgoing: 1.67

Incoming: Need log10 half-life, item CCc1cc(OC)ccc1-c1nc(OC)c(NC(CC)CC)nc1CC
Outgoing: 2.08

----------
# tested target: Corticotropin-releasing factor receptor 1 (Homo sapiens)
# Sequence (P34998 whole entry): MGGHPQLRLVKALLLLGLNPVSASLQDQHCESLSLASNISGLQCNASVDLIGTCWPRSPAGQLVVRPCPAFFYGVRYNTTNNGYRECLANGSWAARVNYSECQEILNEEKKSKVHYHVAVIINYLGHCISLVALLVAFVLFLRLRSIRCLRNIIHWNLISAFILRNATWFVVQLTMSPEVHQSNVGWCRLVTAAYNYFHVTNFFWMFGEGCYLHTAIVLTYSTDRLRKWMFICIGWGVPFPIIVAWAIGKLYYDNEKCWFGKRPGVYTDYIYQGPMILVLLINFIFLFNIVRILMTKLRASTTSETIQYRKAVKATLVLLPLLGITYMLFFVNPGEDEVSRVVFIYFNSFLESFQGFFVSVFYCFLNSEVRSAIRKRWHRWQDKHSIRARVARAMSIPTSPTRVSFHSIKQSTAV
# assay info: Displacement of [125I]-sauvagine from human CRF-1 receptor expressed in human IMR-32 cells after 2 hrs by scintillation counting
# Assay type: cell-based
We begin with a simple list: items and their reported Ki.
Reply with just the number (in µM).

Incoming: Need Ki, item CCc1nc(-c2ccc(Cl)cc2Cl)c(CC)nc1OC(CC)CC
Outgoing: 0.046

Others:
Incoming: Need Ki, item CCc1nc(NC(CC)CC)c(C)nc1-c1ccc(Cl)cc1Cl
Outgoing: 0.054

Incoming: Need Ki, item CCc1nc(NC(CC)CC)c(I)nc1-c1ccc(Cl)cc1Cl
Outgoing: 0.012

Incoming: Need Ki, item CCc1nc(-c2ccc(OC(F)F)cc2Cl)c(OC)nc1NC(CC)CC
Outgoing: 0.0025

Incoming: Need Ki, item CCC(CC)Nc1nc(C)c(-c2ccc(OC(F)F)cc2Cl)nc1OC
Outgoing: 0.0046

Incoming: Need Ki, item CCCCc1nc(-c2ccc(Cl)cc2Cl)c(CC)nc1NC(CC)CC
Outgoing: 3.66

----------
# assay info: Half life in rat at 10 mg/kg, po
# Type: ADME, organism-based
# Set-up: dose 10 mg/kg, route oral
# experimental conditions: in vivo
value kind: half-life (h)
Reply with just the number (in h).

Incoming: Need half-life, item CCC(CC)Nc1nc(C)c(-c2ccc(OC(F)(F)F)cc2OC)nc1OC
Outgoing: 8.4
